- ASSAYED_SYSTEM: Peroxisome proliferator-activated receptor gamma (Homo sapiens, UniProt P37231)
- Sequence (P37231 whole entry, the tested form may be a part): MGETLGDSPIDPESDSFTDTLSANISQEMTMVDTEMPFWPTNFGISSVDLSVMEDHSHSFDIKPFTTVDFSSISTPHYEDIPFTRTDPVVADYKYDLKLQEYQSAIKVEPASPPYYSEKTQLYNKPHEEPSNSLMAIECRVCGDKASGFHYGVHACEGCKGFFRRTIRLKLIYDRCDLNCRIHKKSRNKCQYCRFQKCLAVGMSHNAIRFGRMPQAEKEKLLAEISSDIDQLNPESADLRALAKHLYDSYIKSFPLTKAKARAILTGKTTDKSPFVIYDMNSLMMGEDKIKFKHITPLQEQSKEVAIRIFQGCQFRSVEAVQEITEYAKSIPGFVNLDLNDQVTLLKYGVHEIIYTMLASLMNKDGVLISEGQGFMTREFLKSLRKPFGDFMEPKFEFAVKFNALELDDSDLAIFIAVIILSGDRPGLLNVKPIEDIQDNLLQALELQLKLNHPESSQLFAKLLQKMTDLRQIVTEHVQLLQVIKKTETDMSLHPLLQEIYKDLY
- PROCEDURE_DETAILS: Transactivation of Gal4-tagged PPARgamma ligand binding domain (unknown origin) expressed in COS7 cells measured after overnight incubation by luciferase reporter gene assay
- Type: cell-based, COS-7
Threshold 10 µM: EC50 strictly smaller gives Yes, otherwise No.

Please check: EC50 for CC(C)(C)c1ccc(C(=O)Nc2ccc(Cl)cc2C(=O)Nc2cccc(C(=O)O)c2)cc1 , strictly under 10 µM or not?
Yes

Quick check: does Cc1c(NC(=O)c2ccccc2NC(=O)c2ccc(C(C)(C)C)cc2)cccc1C(=O)O have EC50 under 10 µM?
No

Regarding O=C(O)CCCNC(=O)c1ccccc1NC(=O)c1cccc2ccccc12 , kindly confirm whether its EC50 is beneath 10 µM.
No

Criterion: EC50 strictly below 10 µM. Is it met by O=C(O)c1cccc(NC(=O)c2ccccc2NC(=O)c2ccc3ccccc3c2)c1 ?
Yes

Strictly below 10 µM in EC50? CC(C)(C)c1ccc(C(=O)Nc2ccccc2C(=O)Nc2cccc(C(=O)O)c2)cc1
Yes

Consider the molecule CSc1ccc(C(=O)Nc2ccccc2C(=O)Nc2cccc(CC(=O)O)c2)cc1 . Is its EC50 strictly less than 10 µM?
No

---

- ASSAYED_SYSTEM: Peroxisome proliferator-activated receptor delta (Homo sapiens) (UniProt Q03181)
- Sequence (Q03181 whole entry, the tested form may be a part): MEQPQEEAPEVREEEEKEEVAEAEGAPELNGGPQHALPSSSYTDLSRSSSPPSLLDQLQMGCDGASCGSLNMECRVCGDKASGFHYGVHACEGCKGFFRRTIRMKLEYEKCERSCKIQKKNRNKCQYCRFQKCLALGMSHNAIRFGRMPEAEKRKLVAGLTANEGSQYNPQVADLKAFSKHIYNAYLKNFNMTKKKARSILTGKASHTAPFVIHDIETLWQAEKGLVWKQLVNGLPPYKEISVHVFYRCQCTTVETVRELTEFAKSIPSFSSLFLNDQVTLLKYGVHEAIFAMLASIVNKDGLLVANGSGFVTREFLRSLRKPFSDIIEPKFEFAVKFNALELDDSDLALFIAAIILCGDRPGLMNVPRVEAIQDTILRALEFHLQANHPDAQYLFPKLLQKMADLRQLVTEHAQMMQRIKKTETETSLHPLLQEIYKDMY
- PROCEDURE_DETAILS: Transactivation of Gal4-tagged PPARdelta ligand binding domain (unknown origin) expressed in COS7 cells measured after overnight incubation by luciferase reporter gene assay relative to L165,041
- Type: cell-based
- EXPERIMENTAL_PARAMETERS: Chlorocebus aethiops; COS-7
QUANTITY: max activation (%)
Write down the numeric answer in % and omit the unit.

What does the record list as max activation for O=C(O)c1cccc(NC(=O)c2ccc(Cl)cc2NC(=O)c2ccc(C(F)(F)F)cc2)c1 ?
16.5

Which max activation value belongs to O=C(O)Cc1cccc(NC(=O)c2ccccc2NC(=O)c2ccc3ccccc3c2)c1 ?
147

Which max activation is listed for O=C(O)Cc1cccc(NC(=O)c2ccccc2NC(=O)c2ccc(C(F)(F)F)cc2)c1 ?
58

Entry O=C(O)Cc1cccc(NC(=O)c2ccccc2NC(=O)c2ccc(SC(F)(F)F)cc2)c1 has what max activation?
64

Please look up its max activation: CC(C)(C)c1ccc(C(=O)Nc2ccccc2C(=O)Nc2cccc(CC(=O)O)c2)cc1
46

What value of max activation has been recorded for this entry: O=C(O)c1cccc(NC(=O)c2ccccc2NC(=O)c2ccc3ccccc3c2)c1
51

Any idea what max activation was measured for O=C(O)c1cccc(NC(=O)c2ccccc2NC(=O)c2ccc(C(F)(F)F)c(F)c2)c1 ?
37

Name the reported max activation value associated with the compound O=C(O)c1cccc(NC(=O)c2ccccc2NC(=O)c2ccc(Br)cc2)c1
44

Would you kindly share the measured max activation for O=C(O)c1cccc(NC(=O)c2cc(Cl)ccc2NC(=O)c2ccc(C(F)(F)F)cc2)c1 ?
24

---

- ASSAYED_SYSTEM: Peroxisome proliferator-activated receptor delta (Homo sapiens) (UniProt Q03181)
- PROCEDURE_DETAILS: Transactivation of Gal4-tagged PPARdelta ligand binding domain (unknown origin) expressed in COS7 cells measured after overnight incubation by luciferase reporter gene assay relative to L165,041
- Format: cell-based
- EXPERIMENTAL_PARAMETERS: Chlorocebus aethiops; COS-7
QUANTITY: max activation (%)
Report the figure in % without appending any unit label.

Report max activation for COc1ccc(C(=O)Nc2ccccc2C(=O)Nc2cccc(CC(=O)O)c2)cc1 please.
54

What max activation value was documented for this compound, CSc1ccc(C(=O)Nc2ccccc2C(=O)Nc2cccc(CC(=O)O)c2)cc1 ?
133

Which max activation value is on record for O=C(O)Cc1cccc(NC(=O)c2ccccc2NC(=O)c2ccc(-c3ccccc3)cc2)c1 ?
175

Fill in the blank: the reported max activation of O=C(O)CCc1cccc(NC(=O)c2ccccc2NC(=O)c2ccc(C(F)(F)F)cc2)c1 is ____.
120

Value lookup for max activation; key = O=C(O)c1cccc(NC(=O)c2ccccc2NC(=O)c2ccc(C(F)(F)F)cc2)c1
46

---

- ASSAYED_SYSTEM: Bile acid receptor (Homo sapiens) (UniProt Q96RI1)
- Sequence (whole entry): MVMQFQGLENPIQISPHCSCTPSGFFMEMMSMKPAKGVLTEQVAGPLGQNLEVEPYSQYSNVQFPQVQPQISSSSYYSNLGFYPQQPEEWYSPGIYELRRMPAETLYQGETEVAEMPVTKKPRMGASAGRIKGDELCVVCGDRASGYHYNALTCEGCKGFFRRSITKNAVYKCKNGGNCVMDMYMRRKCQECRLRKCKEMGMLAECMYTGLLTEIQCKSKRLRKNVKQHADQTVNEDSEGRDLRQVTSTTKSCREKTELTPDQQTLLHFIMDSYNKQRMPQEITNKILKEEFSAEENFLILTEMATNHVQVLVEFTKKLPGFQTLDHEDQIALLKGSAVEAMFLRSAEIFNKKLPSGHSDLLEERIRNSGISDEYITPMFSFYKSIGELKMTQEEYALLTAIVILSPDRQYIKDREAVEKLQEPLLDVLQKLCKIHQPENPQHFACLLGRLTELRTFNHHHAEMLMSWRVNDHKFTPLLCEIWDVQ
- PROCEDURE_DETAILS: Transactivation of human FXR expressed in human HeLa cells incubated for 24 hrs by luciferase reporter gene assay relative to GW4064
- Assay type: cell-based
Assignment: determine reported max activation for the given molecules.
The reply should be a number in %, with the unit left off.

Entry under review: CC(C)(C)c1ccc(C(=O)Nc2ccccc2C(=O)Nc2cccc(CC(=O)O)c2)cc1 . Reported max activation?
26

Give its max activation value. Item: CC(C)(C)c1ccc(C(=O)Nc2ccccc2C(=O)Nc2cccc(C(N)=O)c2)cc1
15

Recorded max activation of CC(C)(C)c1ccc(C(=O)Nc2ccccc2C(=O)Nc2cccc(C(=O)O)c2)cc1 , please.
9.4

Reported max activation for COc1ccc(C(=O)O)cc1NC(=O)c1ccccc1NC(=O)c1ccc(C(C)(C)C)cc1 : what is it?
15

For the molecule shown here, CC(C)(C)c1ccc(C(=O)Nc2ccccc2C(=O)Nc2ccc(Br)c(C(=O)O)c2)cc1 , give the reported max activation.
16

---

- ASSAYED_SYSTEM: Peroxisome proliferator-activated receptor alpha (Homo sapiens) (UniProt Q07869)
- Sequence (whole entry): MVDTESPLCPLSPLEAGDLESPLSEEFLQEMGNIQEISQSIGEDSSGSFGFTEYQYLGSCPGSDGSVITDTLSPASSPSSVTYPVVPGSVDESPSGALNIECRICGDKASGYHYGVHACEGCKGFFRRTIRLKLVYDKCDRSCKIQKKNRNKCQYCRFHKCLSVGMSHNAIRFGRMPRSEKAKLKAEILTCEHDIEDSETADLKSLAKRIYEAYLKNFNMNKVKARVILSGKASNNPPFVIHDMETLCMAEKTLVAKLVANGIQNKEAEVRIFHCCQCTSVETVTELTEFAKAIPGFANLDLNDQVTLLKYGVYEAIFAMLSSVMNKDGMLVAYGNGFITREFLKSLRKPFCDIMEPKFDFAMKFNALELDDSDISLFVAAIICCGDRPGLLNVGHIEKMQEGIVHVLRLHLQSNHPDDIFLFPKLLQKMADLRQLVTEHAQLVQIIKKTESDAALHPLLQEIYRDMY
- PROCEDURE_DETAILS: Transactivation of Gal4-tagged PPARalpha ligand binding domain (unknown origin) expressed in COS7 cells at 10 uM measured after overnight incubation by luciferase reporter gene assay
- Type: cell-based
- EXPERIMENTAL_PARAMETERS: COS-7
Answer n if max activation is under 20%, and y if it is 20% or more.

Can CC(C)(C)c1ccc(C(=O)Nc2ccc(Cl)cc2C(=O)Nc2cccc(C(=O)O)c2)cc1 be said to have max activation at or above 20%?
n

Kindly determine if max activation recorded for O=C(O)c1cccc(NC(=O)c2ccccc2NC(=O)c2cc(C(F)(F)F)cc(C(F)(F)F)c2)c1 is above or exactly 20%.
n

Decide: max activation of O=C(O)c1ccc(CNC(=O)c2ccccc2NC(=O)c2ccc3ccccc3c2)cc1 >= 20%?
n

# check: max activation of O=C(O)CCCNC(=O)c1ccccc1NC(=O)c1cccc2ccccc12 is greater than or equal to 20%
n

Could you please find out whether O=C(O)CCCCCNC(=O)c1ccccc1NC(=O)c1ccc2ccccc2c1 has max activation that meets 20% or exceeds it?
y

Exam item: decide whether the reported max activation for CC(C)(C)c1ccc(C(=O)Nc2cc(Cl)ccc2C(=O)Nc2cccc(C(=O)O)c2)cc1 is at least 20%.
y

// inclusive: max activation at least 20%? input: CC(C)(C)c1ccc(C(=O)Nc2ccccc2C(=O)Nc2cc(C(=O)O)ccc2F)cc1
n

Could you please find out whether CC(C)(C)c1ccc(C(=O)Nc2ccccc2C(=O)Nc2cc(C(=O)O)ccc2Cl)cc1 has max activation that meets 20% or exceeds it?
n

Does the compound COc1ccc(C(=O)Nc2ccccc2C(=O)Nc2cccc(CC(=O)O)c2)cc1 have recorded max activation that is 20% or more?
n

Item O=C(O)c1cccc(NC(=O)c2cc(Cl)ccc2NC(=O)c2ccc(C(F)(F)F)cc2)c1 with max activation of 20% or above?
y
